Reference source for all entries: patent US7812008B2

Below: a set of entries, each annotated with reported minimum inhibitory concentration (MIC).
tested on: H. influenzae<> GC6896 (ATCC Control); assay: MIC broth microdilution, H. influenzae GC6896 (ATCC Control); assay type: cell-based; details: 18-22 hours at 35° C.
Could you respond with only the numeric value?

Query string: # minimum inhibitory concentration (MIC) lookup, item CC(C)N(O)CC(=O)Nc1cc(N(C)C)c2c(c1O)C(=O)C1=C(O)[C@]3(O)C(=O)C(C(N)=O)=C(O)[C@@H](N(C)C)[C@@H]3C[C@@H]1C2 [Example 2]
Result string: 2

Query string: Another molecule to check: CN(C)c1cc(NC(=O)CN(O)Cc2ccccc2)c(O)c2c1C[C@H]1C[C@H]3[C@H](N(C)C)C(O)=C(C(N)=O)C(=O)[C@@]3(O)C(O)=C1C2=O [Example 6]
Result string: 2

Query string: Another molecule to check: CN(C)c1cc(NC(=O)CNOC(C)(C)C)c(O)c2c1C[C@H]1C[C@H]3[C@H](N(C)C)C(O)=C(C(N)=O)C(=O)[C@@]3(O)C(O)=C1C2=O [Example 4]
Result string: 2
